Data provenance is patent US6080780A.

Target: benzodiazepine (BDZ-R) receptor
Test: 3H-Flunitrazepam binding to extensively washed bovine cerebral cortical membranes
Details: read-out: Ki, inhibition of 3H-FNZ binding; bovine cerebral cortical membranes; 0.6 nM 3H-FNZ, 4° C., 60 min; n=3
MEASUREMENT_LABEL: Ki (µM)
// note: answer is a bare numeric in µM

Ask: Fill in Ki for record O=c1cc(-c2ccc([N+](=O)[O-])cc2)oc2ccc([N+](=O)[O-])cc12
Reply: 17

----------
Target: central benzodiazepine receptors
Assay: Autoradiographic [3H]-FNZ displacement on rat brain sections
Assay type: binding, rat (Wistar)
Conditions: parietal cortex, n=3; read-out: Ki, [3H]-FNZ binding, autoradiography
MEASUREMENT_LABEL: Ki (nM)
// note: answer is a bare numeric in nM

Ask: Fill in Ki for record O=c1cc(-c2cccc([N+](=O)[O-])c2)oc2ccc([N+](=O)[O-])cc12
Reply: 30.1
